Each recorded value in this set is attributed to patent US20200390100A1.

The following molecules are listed with their measured Stellaria media values.
Test system: Stellaria media
Assay: Herbicidal post-emergence action (Part 2), 1280 g/ha
Assay type: in vivo
Details: application rate 1280 g/ha, rated visually after about 3 weeks, Table C7
Report the figure in % without appending any unit label.

Stellaria media for CCCC(=O)OC1CC2CCCN2C(=O)N1c1cc(C(C)(C)C)on1 (stereo not drawn) is 100

----------
The following compounds are listed with their measured Polygonum convolvulus (efficacy in %) values.
System: Polygonum convolvulus
Assay: Post-emergence herbicidal action, greenhouse, 320 g/ha
Format: in vivo
Details: application rate 320 g/ha, rated visually after about 3 weeks vs untreated controls
Report the figure in % without appending any unit label.

| compound | valueUnit | reportedResult |
| --- | --- | --- |
| CN1CCC(OC(=O)C(C)(C)C)N(c2cc(C(C)(C)C)on2)C1=O (stereo not shown) | % | 100 |

Polygonum convolvulus (efficacy in %) for CCCC(=O)OC1CCN(C)C(=O)N1c1cc(C(C)(C)C)on1 (stereo not shown) is 100

Polygonum convolvulus (efficacy in %) for CCC(=O)OC1CC2CCCN2C(=O)N1c1cc(C(C)(C)C)on1 (stereo not shown) is 100

Polygonum convolvulus (efficacy in %) for CC(=O)OC1CC2CCCN2C(=O)N1c1cc(C(C)(C)C)on1 (stereo not shown) is 90

Polygonum convolvulus (efficacy in %) for CCC(=O)OC1CCN(C)C(=O)N1c1cc(C(C)(C)C)on1 (stereo not shown) is 100

Polygonum convolvulus (efficacy in %) for CC(C)CC(=O)OC1CCN(C)C(=O)N1c1cc(C(C)(C)C)on1 (stereo not shown) is 90

Polygonum convolvulus (efficacy in %) for CC(=O)OC1CCN(C)C(=O)N1c1cc(C(C)(C)C)on1 (stereo not shown) is 100
